- Tested on: D-283MED (Other Solid Carcinomas);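 also: after 72 h of two-drug dosing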
- EXPERIMENT SUMMARY: Bliss excess, mean over the matrix (fraction); higher = more synergy
Below, each entry is listed with its recorded Bliss excess.

{"COMPOUND": "C=CCn1c(=O)c2cnc(Nc3ccc(N4CCN(C)CC4)cc3)nc2n1-c1cccc(C(C)(C)O)n1 [AZD1775] + C1CN(CCC1(C(=O)N[C@@H](CCO)C2=CC=C(C=C2)Cl)N)C3=NC=NC4=C3C=CN4 [Capivasertib] (first compound max 3 µM, partner max 3 µM)", "ASSAY SYSTEM": "D-283MED (Other Solid Carcinomas)", "Bliss excess": -0.0189}
{"COMPOUND": "C=CCn1c(=O)c2cnc(Nc3ccc(N4CCN(C)CC4)cc3)nc2n1-c1cccc(C(C)(C)O)n1 [AZD1775] + Nc1ccn([C@@H]2O[C@H](CO)[C@@H](O)C2(F)F)c(=O)n1 [Gemcitabine] (first compound max 1 µM, partner max 0.3 µM)", "ASSAY SYSTEM": "D-283MED (Other Solid Carcinomas)", "Bliss excess": 0.0097}
{"COMPOUND": "COc1nnc2ccc(N3CCC(c4ccc(OCCN5CCN(C)C(=O)[C@H]5C)cc4)CC3)nn12 [AZD5153] + Cn1cnc2c(F)c(Nc3ccc(Br)cc3Cl)c(C(=O)NOCCO)cc21 [Selumetinib] (first compound max 1 µM, 7x7, partner max 10 µM)", "ASSAY SYSTEM": "D-283MED (Other Solid Carcinomas)", "Bliss excess": -0.0211}
